Cited source: patent US11034725B2

subject of test: PCSK9Δhelix (Homo sapiens, UniProt Q8NBP7)
Construct: Human PCSK9 construct M1-Q692 with an engineered TEV site (residue deletion Y166, R167); made in house; host or cells: CHO
Sequence (Q8NBP7 with tags, fused parts or gaps limits assumed): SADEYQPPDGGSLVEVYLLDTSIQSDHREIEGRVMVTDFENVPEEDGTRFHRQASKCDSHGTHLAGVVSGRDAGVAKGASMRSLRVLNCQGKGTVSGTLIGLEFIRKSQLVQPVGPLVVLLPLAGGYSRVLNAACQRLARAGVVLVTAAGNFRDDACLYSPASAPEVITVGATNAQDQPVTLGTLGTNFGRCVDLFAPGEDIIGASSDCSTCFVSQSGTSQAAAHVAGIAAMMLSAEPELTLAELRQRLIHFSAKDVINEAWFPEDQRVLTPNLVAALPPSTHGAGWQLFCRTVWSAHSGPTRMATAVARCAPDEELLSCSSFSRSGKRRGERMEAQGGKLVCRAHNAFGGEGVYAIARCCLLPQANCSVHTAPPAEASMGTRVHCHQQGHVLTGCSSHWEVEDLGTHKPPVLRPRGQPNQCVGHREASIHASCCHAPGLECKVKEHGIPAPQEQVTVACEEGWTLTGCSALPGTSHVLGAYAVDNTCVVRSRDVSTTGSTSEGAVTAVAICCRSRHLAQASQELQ
Sequence (Q8NBP7 31-152 partner limits assumed): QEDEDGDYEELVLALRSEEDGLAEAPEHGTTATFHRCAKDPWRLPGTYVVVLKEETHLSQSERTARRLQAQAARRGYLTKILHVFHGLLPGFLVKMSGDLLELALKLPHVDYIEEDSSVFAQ
test name: Surface plasmon resonance biosensor-based affinity analysis (Example 4)
Type: binding
settings: Table 7, Target PCSK9Δhelix, SPR at 20° C.; read-out: Kd
Could you please report measured log10 of Kd for the items listed next?
Give log10 of Kd, with Kd taken in µM.

# substance, log10 of Kd
data = [
    ("Ac-MPWNLVRIGLLR-NH2 [Compound 51]", 0.43),
]

State recorded log10 of Kd for all listed substances.
1. H-SGDLMPWNLVRIGLLR-OH [Compound 28]
2. Ac-LMPWNLVRIGLLR-NH2 [Compound 50]

1: -0.07; 2: 0.20

State recorded log10 of Kd for all listed substances.
1. Ac-ALMPWNLVRIGLLR-NH2 [Compound 45]
2. Ac-DLMPWNLVRIGLAR-NH2 [Compound 55]
3. Ac-WNLVRIGLLR-NH2 [Compound 53]
4. Ac-TVFTSWEEYLDWVGSGDLMPWNLVRIGLLR-NH2 [Compound 20]
5. Ac-PWNLVRIGLLR-NH2 [Compound 52]

[0.91, 0.45, 1.53, -3.44, 0.41]

====

Test system: His-EGF(A)-Fc
test name: His-EGF(A)-Fc TR-FRET counterscreen
settings: TR-FRET counterscreen; Table 8E, additional compounds
pIC50: −log10 of the molar value. Square brackets hold non-standard residues; d marks the D form. Peptide text beside a SMILES is read from it. * marks the point of attachment. hArg = N=C(N)NCCCC[C@H](N)C(=O)O; Pentanoyl = CCCCC(=O)*
Could you please report measured pIC50 for the items listed next?

# compound, reported value
rows = [
    ("CC[C@H](C)[C@H](NC(=O)[C@H](CCCCNC(=N)N)NC(=O)[C@@H](NC(=O)[C@H](CC(C)C)NC(=O)[C@H](CC(N)=O)NC(=O)[C@@H](N)Cc1c[nH]c2ccccc12)C(C)C)C(=O)NCC(N)=O [Compound 236, WNLV(homoR)IG-NH2] (H-WNLV[hArg]IG-NH2)", "≤ 4.30"),
    ("CCCCC(=O)N[C@@H](Cc1c[nH]c2ccccc12)C(=O)N[C@@H](CC(N)=O)C(=O)N[C@@H](CC(C)C)C(=O)N[C@H](C(=O)N[C@@H](CCCNC(=N)N)C(=O)N[C@H](C(=O)NCC(=O)N[C@@H](CC(C)C)C(=O)NCC(=O)N[C@@H](CCCNC(=N)N)C(N)=O)[C@@H](C)CC)C(C)C [Compound 179] (Pentanoyl-WNLVRIGLGR-NH2)", "≤ 4.30"),
    ("CC[C@H](C)[C@H](NC(=O)[C@H](CCCCNC(=N)N)NC(=O)[C@@H](NC(=O)[C@H](CC(C)C)NC(=O)[C@H](CC(N)=O)NC(=O)[C@H](Cc1c[nH]c2ccccc12)NC(=O)CNC(=O)[C@@H]1CCCN1C(=O)[C@H](Cc1ccc(O)cc1)NC(=O)[C@H](CO)NC(=O)[C@H](CCC(=O)O)NC(C)=O)C(C)C)C(=O)NCC(=O)N[C@@H](CC(C)C)C(=O)N[C@@H](CC(C)C)C(=O)N[C@@H](CCCNC(=N)N)C(N)=O [Compound 231] (Ac-ESYPGWNLV[hArg]IGLLR-NH2)", "≤ 4.30"),
    ("CCCCC(=O)N[C@@H](Cc1c[nH]c2ccccc12)C(=O)N[C@@H](CC(N)=O)C(=O)N[C@@H](CC(C)C)C(=O)N[C@H](C(=O)N[C@@H](CCCNC(=N)N)C(=O)N[C@H](C(=O)NCC(=O)N[C@@H](CC(C)C)C(=O)N[C@@H](CC(=O)O)C(=O)N[C@@H](CCCNC(=N)N)C(N)=O)[C@@H](C)CC)C(C)C [Compound 178] (Pentanoyl-WNLVRIGLDR-NH2)", "≤ 4.30"),
    ("CC[C@H](C)[C@H](NC(=O)[C@H](CCCCNC(=N)N)NC(=O)[C@@H](NC(=O)[C@H](CC(C)C)NC(=O)[C@H](CC(N)=O)NC(=O)[C@H](Cc1c[nH]c2ccccc12)NC(=O)CNC(=O)[C@@H]1CCCN1C(=O)[C@H](Cc1ccccc1)NC(=O)[C@H](CO)NC(=O)[C@H](CCC(=O)O)NC(C)=O)C(C)C)C(=O)NCC(=O)N[C@@H](CC(C)C)C(=O)N[C@@H](CC(C)C)C(=O)N[C@@H](CCCNC(=N)N)C(N)=O [Compound 227] (Ac-ESFPGWNLV[hArg]IGLLR-NH2)", "≤ 4.30"),
]

Continue with the compound presented below.
Please report the recorded pIC50 for CCCCC(=O)N[C@@H](Cc1c[nH]c2ccccc12)C(=O)N[C@@H](CC(N)=O)C(=O)N[C@@H](CC(C)C)C(=O)N[C@H](C(=O)N[C@@H](CCCNC(=N)N)C(=O)N[C@H](C(=O)NCC(=O)N[C@@H](CC(C)C)C(=O)N[C@H](C(=O)N[C@@H](CCCNC(=N)N)C(=O)O)[C@@H](C)O)[C@@H](C)CC)C(C)C [Compound 176] (Pentanoyl-WNLVRIGLTR-OH) .
≤ 4.30
